# Target or system: KRAS 4B G12C protein (Homo sapiens, UniProt P01116, G12C)
# Construct: This protein contained 188 amino acids in total, including an N-terminal 6-Histidine tag; made in house; host or cells: E. coli BL21
# Assay: In vitro covalent adduct formation (CAF) assay by LC-MS
# Assay type: binding
# Measurement context: 10 minutes; compound 10 μM, protein 5 μM, 22° C.; percentage of protein bound by the compound
Measured CAF (10 minutes/60 minutes) at 10 micromolar: 10 minutes, listed per entry for reference.
Answer in %/ 0%, number only, no unit symbol.

Consider the following illustrative entries.
INSERT INTO assay_data (compound, display_unit, assay_value) VALUES
  ('C=CC(=O)N1CCN(c2nc(OC[C@@H]3CCCN3C)nc3c2CN(Cc2cc(C(F)(F)F)ccc2C)C3)[C@@H](C)C1', '%/ 0%', 0),
  ('C=CC(=O)N1CC2CC(=O)CC1CN2c1nc(OC)nc2c1CN(C1CCc3ccccc31)C2 (centres unmarked)', '%/ 0%', 0);

Kindly consider the entry below.
Looking up C=CC(=O)N1CCN(c2nc(OC[C@@H]3CCCN3C)nc3c2CN(C2CCc4ccccc42)C3)C[C@@H]1Cc1ncc[nH]1 (some centres unmarked) , I found its CAF (10 minutes/60 minutes) at 10 micromolar: 10 minutes recorded as 0

====

# Target or system: KRAS 4B G12C protein (Homo sapiens, UniProt P01116, G12C)
# Construct: This protein contained 188 amino acids in total, including an N-terminal 6-Histidine tag; made in house; host or cells: E. coli BL21
# Assay: In vitro covalent adduct formation (CAF) assay by LC-MS
# Format: binding
# Measurement context: 60 minutes; compound 10 μM, protein 5 μM, 22° C.; percentage of protein bound by the compound
Measured CAF (10 minutes/60 minutes) at 10 micromolar: 60 minutes, listed per entry for reference.
Answer in %, number only, no unit symbol.

Consider the following illustrative entries.
INSERT INTO results (compound, assay_value) VALUES
  ('C=C(F)C(=O)N1CCN(c2nc(OC[C@@H]3CCCN3C)nc3c2CN(Cc2ccccc2C(F)(F)F)C3)C[C@@H]1CC#N [1-221]', 92),
  ('C=CC(=O)N1CCN(c2nc(OC[C@@H]3CCCN3C)nc3c2CN(Cc2ncccc2Cl)C3)C[C@@H]1CC#N [1-113]', 89),
  ('C=CC(=O)N1CCN(c2nc(OC[C@@H]3CCCN3C)nc3c2CN(Cc2c(Cl)ccc4nc[nH]c24)C3)C[C@@H]1CC#N [1-229]', 95);

Looking up C=CC(=O)N1CCN(c2nc(OC[C@@H]3CCCN3C)nc3c2CN(C(=O)c2cc(O)ccc2C)C3)[C@@H](C)C1 [1-23] , I found its CAF (10 minutes/60 minutes) at 10 micromolar: 60 minutes recorded as 35

Looking up C=CC(=O)N1CCN(c2nc(OC)nc3c2CN(Cc2cc(F)ccc2Cl)C3)C[C@@H]1CC#N [1-76] , I found its CAF (10 minutes/60 minutes) at 10 micromolar: 60 minutes recorded as 7

Looking up C=CC(=O)N1CCN(c2nc(OC[C@@H]3CCCN3C)nc3c2CN(C2CCc4ccccc42)C3)CC1 (stereo partly shown) [1-190] , I found its CAF (10 minutes/60 minutes) at 10 micromolar: 60 minutes recorded as 26

Looking up C=CC(=O)N1CCN(c2nc(OC[C@@H]3CCCN3C)nc3c2CN(Cc2c(C)cccc2C)C3)[C@@H](C)C1 [1-3] , I found its CAF (10 minutes/60 minutes) at 10 micromolar: 60 minutes recorded as 33

Looking up C=C(F)C(=O)N1CCN(c2nc(OC[C@@H]3CCCN3C)nc3c2CN(Cc2c(CC)ccc(O)c2C)C3)C[C@@H]1CC#N [1-253] , I found its CAF (10 minutes/60 minutes) at 10 micromolar: 60 minutes recorded as 94

Looking up C=CC(=O)N1CCN(c2nc(OC[C@@H]3CCCN3C)nc3c2CN(Cc2cccc(Cl)c2Cl)C3)C[C@@H]1CC#N [1-81] , I found its CAF (10 minutes/60 minutes) at 10 micromolar: 60 minutes recorded as 98

Looking up C=CC(=O)N1CCN(c2nc(OC[C@@H]3CCCN3C)nc3c2CN(Cc2cc(OC)ccc2F)C3)C[C@@H]1CC#N [1-39] , I found its CAF (10 minutes/60 minutes) at 10 micromolar: 60 minutes recorded as 72

Looking up C=CC(=O)N1CCN(c2nc(OC[C@@H]3CCCN3CCF)nc3c2CN(C2CCc4ccccc42)C3)C[C@@H]1CC#N (stereo partly shown) [1-151] , I found its CAF (10 minutes/60 minutes) at 10 micromolar: 60 minutes recorded as 91

Looking up C=C(F)C(=O)N1CCN(c2nc(OC[C@@H]3CCCN3C)nc3c2CN(C2CCCc4cccc(Cl)c42)C3)C[C@@H]1CC#N (stereo partly shown) [1-126] , I found its CAF (10 minutes/60 minutes) at 10 micromolar: 60 minutes recorded as 88

Looking up C=CC(=O)N1CCN(c2nc(OC[C@@H]3CCCN3C)nc3c2CN(Cc2c(Cl)cccc2OC(F)F)C3)C[C@@H]1CC#N [1-82] , I found its CAF (10 minutes/60 minutes) at 10 micromolar: 60 minutes recorded as 98

====

Measured CAF (10 minutes/60 minutes) at 10 micromolar: 10 minutes, listed per entry for reference.
# Target or system: KRAS 4B G12C protein (Homo sapiens, UniProt P01116, G12C)
# Construct: This protein contained 188 amino acids in total, including an N-terminal 6-Histidine tag; made in house; host or cells: E. coli BL21
# Assay: In vitro covalent adduct formation (CAF) assay by LC-MS
# Assay type: binding
# Measurement context: 10 minutes; compound 10 μM, protein 5 μM, 22° C.; percentage of protein bound by the compound

INSERT INTO assay_data (substance_smiles, assay_value) VALUES
  ('C=CC(=O)N1CCN(c2nc(OC[C@@H]3CCCN3C)nc3c2CN(Cc2cc(O)ccc2Cl)C3)C[C@@H]1CC#N', '74%/ 74%');

Bench note, KRAS 4B G12C protein (Homo sapiens, UniProt P01116, G12C): entry C=CC(=O)N1CCN(c2nc(OC[C@@H]3CCCN3C)nc3c2CN(Cc2c(Cl)cccc2OC)C3)C[C@@H]1CC#N , its CAF (10 minutes/60 minutes) at 10 micromolar: 10 minutes = 97%/ 97%

Bench note, KRAS 4B G12C protein (Homo sapiens, UniProt P01116, G12C): entry C=CC(=O)N1CCN(c2nc(OC[C@@H]3CCCN3C)nc3c2CN(Cc2c(O)cccc2Cl)C3)C[C@@H]1CC#N , its CAF (10 minutes/60 minutes) at 10 micromolar: 10 minutes = 98%/ 98%

====

# Target or system: KRAS 4B G12C protein (Homo sapiens, UniProt P01116, G12C)
# Construct: This protein contained 188 amino acids in total, including an N-terminal 6-Histidine tag; made in house; host or cells: E. coli BL21
# Assay: In vitro covalent adduct formation (CAF) assay by LC-MS
# Type: binding
# Measurement context: 60 minutes; compound 10 μM, protein 5 μM, 22° C.; percentage of protein bound by the compound
We label by threshold. Values of CAF (10 minutes/60 minutes) at 10 micromolar: 60 minutes strictly beneath 80% are t. Values of 80% and up are f.

Observe how each entry below is paired with its result.
INSERT INTO assay_data (compound, answer_label) VALUES
  ('C=CC(=O)N1CCN(c2nc(OC[C@@H]3CCCN3C3CC(=O)C3)nc3c2CN(C2CCc4ccccc42)C3)C[C@@H]1CC#N (stereo partly shown)', 't'),
  ('C=CC(=O)N1CCN(c2nc(OC[C@@H]3CCCN3C)nc3c2CN(Cc2c(Cl)ccc4c2CCCO4)C3)C[C@@H]1CC#N', 'f'),
  ('C=CC(=O)N1CCN(c2nc(O[C@@H]3CN(C)C[C@H]3OC)nc3c2CN(C2CCc4ccccc42)C3)C[C@@H]1CC#N (stereo partly shown)', 't'),
  ('C=CC(=O)N1C2CC(=O)CC1CN(c1nc(OC[C@@H]3CCCN3C)nc3c1CN(C1CCc4ccccc41)C3)C2 (stereo partly shown)', 't'),
  ('C=CC(=O)N1CCN(c2nc(OC[C@@H]3CCCN3C)nc3c2CN(Cc2ccccc2C(C)C)C3)C[C@@H]1CC#N', 'f'),
  ('C=CC(=O)N1CCN(c2nc(OC[C@@H]3CCCN3C)nc3c2CN(Cc2cc(Cl)ccc2C)C3)C[C@@H]1CC#N', 'f');

# next compound below
Query :: Is the reported CAF (10 minutes/60 minutes) at 10 micromolar: 60 minutes for C=CC(=O)N1CCN(c2nc(OC[C@@H]3CCCN3C)nc3c2CN(C2CCc4ccc(O)c(Cl)c42)C3)C[C@@H]1CC#N (stereo partly shown) strictly below 80%?
Result :: f

The measurements presented in this section are drawn from patent US20210292330A1.
